- measured-target: IKBKB (human)
- assay-notes: radiometric filter-binding kinase assay
- test-conditions: compound 100.0 µM; ATP 5 µM
property-measured: inhibition
Remember to put the unit after the number in your answer.

Some molecules with recorded inhibition:
Nc1cnc2c(-c3c(F)cccc3F)cccn2c1=O : 66%
Nc1nc2cnc(-c3ccccc3)cn2n1 : 27%
CC(C)(C)Nc1c(COCc2ccccc2)nc2[nH]cnn12 : 9%

Hello, I would appreciate it if you could give inhibition for each entry below.
1. O=c1c(NC(=S)NCc2ccccc2)cnc2[nH]ccn12
2. O=c1cc(-c2ccccc2F)nc2[nH]ccn12
3. COc1ccc(NC(=S)Nc2cnc3[nH]cnn3c2=O)cn1
4. CC(C)(C)Nc1c(C2CC2)nc2[nH]cnn12
5. CC(=O)Nc1nc2cnc(-c3c(C)cccc3C)cn2n1
6. O=C(Nc1cnc2[nH]cnn2c1=O)c1ccccc1

Marked response:
1. 0%
2. 15%
3. 0%
4. 11%
5. 0%
6. 0%

---

- measured-target: EPHB3 (human) (UniProt P54753)
- Sequence (P54753 whole entry, looked up): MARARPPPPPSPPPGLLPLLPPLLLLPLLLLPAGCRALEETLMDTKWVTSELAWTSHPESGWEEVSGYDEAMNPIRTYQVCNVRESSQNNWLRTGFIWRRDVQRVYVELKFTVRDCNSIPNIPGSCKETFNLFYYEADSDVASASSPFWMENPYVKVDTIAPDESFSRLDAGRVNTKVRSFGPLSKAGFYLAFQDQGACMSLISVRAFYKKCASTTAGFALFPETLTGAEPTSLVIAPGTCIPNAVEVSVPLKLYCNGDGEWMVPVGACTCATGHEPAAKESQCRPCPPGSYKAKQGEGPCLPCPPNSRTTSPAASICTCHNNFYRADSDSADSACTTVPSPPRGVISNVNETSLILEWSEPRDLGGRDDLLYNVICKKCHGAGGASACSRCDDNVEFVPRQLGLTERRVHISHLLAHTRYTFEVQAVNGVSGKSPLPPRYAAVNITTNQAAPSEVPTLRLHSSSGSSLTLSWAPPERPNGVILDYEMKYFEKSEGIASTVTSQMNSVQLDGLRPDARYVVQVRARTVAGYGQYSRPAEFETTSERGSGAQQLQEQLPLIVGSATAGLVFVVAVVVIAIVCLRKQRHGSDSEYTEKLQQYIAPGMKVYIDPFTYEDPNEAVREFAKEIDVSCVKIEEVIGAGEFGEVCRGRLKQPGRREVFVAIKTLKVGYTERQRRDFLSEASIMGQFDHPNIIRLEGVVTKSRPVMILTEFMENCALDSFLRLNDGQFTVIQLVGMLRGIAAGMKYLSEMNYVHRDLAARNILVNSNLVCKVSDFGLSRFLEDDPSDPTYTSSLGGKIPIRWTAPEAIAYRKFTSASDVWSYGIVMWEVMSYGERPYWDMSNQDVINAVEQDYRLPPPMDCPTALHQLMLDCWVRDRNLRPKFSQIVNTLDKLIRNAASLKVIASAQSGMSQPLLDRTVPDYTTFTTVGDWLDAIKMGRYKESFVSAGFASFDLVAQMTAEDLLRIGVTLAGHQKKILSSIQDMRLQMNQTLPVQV
- assay-notes: radiometric filter-binding kinase assay
- test-conditions: compound 100.0 µM; ATP 20 µM
property-measured: inhibition (%)
Answers are plain numbers, in %.

Worked cases, inhibition given:
Nc1cnc2c(-c3c(F)cccc3F)cccn2c1=O : 42
COc1ccc(NC(=S)Nc2cnc3[nH]cnn3c2=O)cn1 : 8
O=C(Nc1cnc2[nH]ccn2c1=O)c1ccccc1 : 5
CC(=O)Nc1nc2cnc(-c3c(C)cccc3C)cn2n1 : 4
Nc1nc2cnc(-c3ccccc3)cn2n1 : 54
CC1CN(c2nc3ccccn3c(=O)c2N)CC(C)O1 (configuration not stated) : 0

Kindly consider the entry below.
Exam item: Supply recorded inhibition for "CC(C)(C)Nc1c(COCc2ccccc2)nc2[nH]cnn12" here.
Marked response: 90

---

- measured-target: BRSK1 (human) (UniProt Q8TDC3)
- Sequence (Q8TDC3 whole entry, looked up): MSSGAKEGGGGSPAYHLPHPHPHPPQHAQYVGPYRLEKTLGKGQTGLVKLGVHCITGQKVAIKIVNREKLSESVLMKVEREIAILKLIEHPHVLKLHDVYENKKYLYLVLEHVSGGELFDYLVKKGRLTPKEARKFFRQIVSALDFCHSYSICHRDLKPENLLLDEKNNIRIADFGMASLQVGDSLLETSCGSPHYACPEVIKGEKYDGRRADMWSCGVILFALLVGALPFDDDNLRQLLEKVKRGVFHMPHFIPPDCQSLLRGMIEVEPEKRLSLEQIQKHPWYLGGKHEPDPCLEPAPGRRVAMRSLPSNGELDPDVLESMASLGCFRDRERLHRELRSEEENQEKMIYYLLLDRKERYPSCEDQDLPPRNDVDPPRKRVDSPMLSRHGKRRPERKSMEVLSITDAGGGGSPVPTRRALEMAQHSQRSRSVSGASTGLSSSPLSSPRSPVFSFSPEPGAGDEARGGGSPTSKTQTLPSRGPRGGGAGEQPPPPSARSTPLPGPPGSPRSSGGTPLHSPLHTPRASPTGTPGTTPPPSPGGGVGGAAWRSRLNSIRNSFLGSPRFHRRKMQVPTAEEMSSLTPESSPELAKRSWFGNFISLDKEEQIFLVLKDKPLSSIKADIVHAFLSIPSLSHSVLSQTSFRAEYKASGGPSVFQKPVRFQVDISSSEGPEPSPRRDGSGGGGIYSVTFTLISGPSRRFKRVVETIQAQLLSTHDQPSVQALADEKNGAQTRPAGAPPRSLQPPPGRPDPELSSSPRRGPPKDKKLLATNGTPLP
- assay-notes: radiometric filter-binding kinase assay
- test-conditions: compound 100.0 µM; ATP 20 µM
property-measured: inhibition (%)
Numbers only, in %.

These solved cases illustrate the format of a correct answer.
O=C(Nc1cnc2[nH]ccn2c1=O)c1ccccc1 : 14
Nc1cnc2c(-c3c(F)cccc3F)cccn2c1=O : 22
CC1CN(c2nc3ccccn3c(=O)c2N)CC(C)O1 (stereo not given) : 12
COc1ccc(-c2cc3c(=O)[nH]cnc3s2)cc1OC : 45

Next up:
Exam item: GET inhibition | system: BRSK1 (human) (UniProt Q8TDC3) | item: "O=C(c1cccc(-c2cc3c(=O)[nH]cnc3s2)c1)N1CCOCC1"
Marked response: 38

---

- measured-target: NTRK1 (human)
- assay-notes: radiometric filter-binding kinase assay
- test-conditions: compound 100.0 µM; ATP 20 µM
property-measured: inhibition (%)
Numbers only, in %.

Return reported inhibition values for all items listed beneath this line.
1. O=c1cc(-c2ccccc2F)nc2[nH]ccn12
2. COc1ccc(NC(=S)Nc2cnc3[nH]cnn3c2=O)cn1
3. CC(=O)Nc1nc2cnc(-c3ccccc3)cn2n1

Marked response:
1. 50
2. 0
3. 28

From: the kinase profiling compilation of Christmann-Franck et al. (2016)
